The compounds listed here are annotated with their selectivity ratio.
Experiment: Selectivity ratio of CC50 for cytotoxicity against mouse RAW264.7 cells to EC50 for antibacterial activity against intracellular multidrug-resistant Salmonella typhimurium ATCC14028 infected in mouse RAW264.7 cells
Assay type: toxicity, cell-based
Details: read-out: Ratio CC50/EC50

| compound | relationalOperator | selectivity ratio |
| --- | --- | --- |
| Clc1ccc2c(c1)C(NCCN1CCCCC1)=Nc1ccccc1O2 | = | 5.1 |
| CCCCCNC1=Nc2ccccc2Oc2ccc(Cl)cc21 | = | 1.3 |
| Clc1ccc2c(c1)C(NCCN1CCOCC1)=Nc1ccccc1O2 | = | 2.6 |
| CN1CCCC1CCNC1=Nc2ccccc2Oc2ccc(Cl)cc21 (stereo unspecified) | = | 18.9 |
| Clc1ccc2c(c1)C(NCCc1ccccc1)=Nc1ccccc1O2 | = | 2.7 |
| Clc1ccc2c(c1)C(N1CCNCC1)=Nc1ccccc1O2 | = | 14.8 |
| CC(C)CCNC1=Nc2ccccc2Oc2ccc(Cl)cc21 | = | 1.3 |
| CCC(CC)NC1=Nc2ccccc2Oc2ccc(Cl)cc21 | = | 2.6 |
| Clc1ccc2c(c1)C(NCCc1ccc(Cl)c(Cl)c1)=Nc1ccccc1O2 | = | 2.7 |
| Clc1ccc2c(c1)C(NCCCN1CCCC1)=Nc1ccccc1O2 | = | 14.6 |
| Clc1ccc(CCNC2=Nc3ccccc3Oc3ccc(Cl)cc32)cc1 | > | 1.7 |
